Here, each record is paired with measured %Inh data.
Test system: ACVRL1
Conditions: concentration: 1 μM, replicates: in singlicate; n = 1;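 note: KINOMEscan kinase panel screen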
Number plus unit, in that order.

stdin: Please look up its %Inh: O=C(Nc1n[nH]c2nc(-c3ccccc3O)ccc12)C1CC1 [SB-711880]
stdout: 0%

stdin: Try this molecule too: O=C(Nc1n[nH]c2nc(-c3cccc(O)c3)ccc12)C1CC1 [SB-711805]
stdout: 0%

stdin: Try this molecule too: Fc1cc(Cl)ccc1Nc1ccnc2cc(-c3ccc(CN4CCSCC4)o3)ccc12 [GW560106]
stdout: 49%

stdin: Try this molecule too: CN(c1ccc(NC(=O)N2CCN(CCCN3CCOCC3)CC2)cc1)c1ccnc(Nc2ccc(CS(C)(=O)=O)cc2)n1.Cl [GW830899]
stdout: 0%

* * *

System: PFTK1
Construct: gene CDK14
Details: concentration: 1 μM, replicates: in singlicate; n = 1
Here, each record is paired with measured %Inh data.
Write the number in % without appending the unit.

LINE NOTATION	UNIT ABBREV	%Inh
Nc1ncnc2scc(-c3ccc(NC(=O)Cc4cc(F)ccc4F)cc3)c12.O=C(O)C(F)(F)F	%	2

stdin: Please look up its %Inh: CCOc1nccc(-c2c(-c3ccc(F)cc3)ncn2C2CCNCC2)n1
stdout: 20

stdin: Try this molecule too: COc1cc(Nc2nccc(N3CCC(NS(=O)(=O)c4ccc(NC(C)=O)cc4)CC3)n2)cc(OC)c1OC
stdout: 5

stdin: Try this molecule too: CN1CCN(Cc2ccc(NC(=O)Nc3ccc(N(C)c4ccnc(Nc5ccc(CS(C)(=O)=O)cc5)n4)cc3)cc2)CC1.Cl
stdout: 0

* * *

System: MAP3K3
Details: concentration: 1 μM, replicates: in singlicate; n = 1
Criterion: %Inh strictly less than 1%. Met: 1 (yes). Not met: 0 (no).

These recorded examples may help you get a feel for the data.
MOLECULE	ASSIGNED LABEL
COc1cccc2c(-c3ccncc3)c(-c3ccc(F)cc3)nn12	1 (yes)
COc1cccc(CC(=O)N2CCc3cc(-c4cn(C)c5ncnc(N)c45)ccc32)c1	0 (no)
COc1cc(Nc2nccc(N3CCC(NC(=O)Nc4ccc5c(c4)OCO5)C3)n2)cc(OC)c1OC (centres unmarked)	1 (yes)
Cn1cc(-c2ccc3c(c2)CCN3C(=O)Cc2cc(F)cc(C(F)(F)F)c2)c2c(N)ncnc21	0 (no)
Cc1cccc(Nc2nc(N[C@H]3CCCC[C@H]3N)ncc2C(N)=O)c1.Cl	0 (no)

stdin: Check if %Inh falls below 1% for Cc1cc(-c2c(-c3ccc(F)cc3)ncn2CCCN2CCOCC2)nc(N)n1 .
stdout: 1 (yes)

stdin: Try this molecule too: Cc1ccc(Nc2ccnc(Nc3ccc(C)c(F)c3)n2)cc1O.Cl
stdout: 1 (yes)

* * *

System: DRAK1
Construct: gene STK17A
Conditions: concentration: 1 μM, replicates: in singlicate; n = 1
Here, each record is paired with measured %Inh data.
Write the number in % without appending the unit.

stdin: # value lookup — system DRAK1, readout %Inh, item Cc1ccc(NC(=O)c2cccc(N3CCCCC3)c2)cc1-c1ccc(C(=O)NCC2CC2)cc1
stdout: 0

stdin: Try this compound too: Cc1cc(-c2ccnc(Nc3cccc(C#N)c3)n2)cc(C)c1O
stdout: 96.8

* * *

Test system: YES
Construct: gene YES1
Conditions: concentration: 1 μM, replicates: in singlicate; n = 1
METRIC NAME: %Inh (%)
Write the number in % without appending the unit.

Here is how some compounds turned out for %Inh.
LINE NOTATION	%Inh (%)
COc1cccc(-c2nc(-c3ccccc3)[nH]c2-c2ccncc2)c1	8
Cc1ccc(Nc2ccnc(Nc3ccc(C)c(F)c3)n2)cc1O.Cl	53
Cl.O=C(Nc1ccc(Oc2ccc3[nH]c(NC(=O)c4ccco4)nc3c2)cc1)Nc1cc(C(F)(F)F)ccc1F	61
c1ccc(Oc2ccc(Nc3ccnc4cc(-c5ccc(CN6CCCCC6)o5)ccc34)cc2)nc1	51
CN(C)CCNS(=O)(=O)c1ccc(-c2ccnc3[nH]ccc23)cc1	16

stdin: Please look up its %Inh: N#Cc1cnc2cc(-c3cnc(CNCCN4CCOCC4)s3)ccc2c1Nc1ccc(Oc2ccccc2)cc1
stdout: 97.1

* * *

System: NEK7
Details: concentration: 1 μM, replicates: in singlicate; n = 1
METRIC NAME: %Inh (%)
Write the number in % without appending the unit.

Here is how some compounds turned out for %Inh.
COMPOUND	%Inh [%]
CN(C)c1ncnc2nc[nH]c12 [SKF-31736]	0
COc1cccc2c(-c3ccncc3)c(-c3ccc(F)cc3)nn12 [GW468513]	0

stdin: Please look up its %Inh: Fc1cc(Cl)ccc1Nc1ccnc2cc(-c3ccc(CN4CCSCC4)o3)ccc12 [GW560106]
stdout: 0

stdin: Try this compound too: Cc1cc(-c2ccnc(Nc3cccc(C#N)c3)n2)cc(C)c1O [GSK1440913]
stdout: 0

* * *

Test system: CAMKK1
Details: concentration: 1 μM, replicates: in singlicate; n = 1
Here, each record is paired with measured %Inh data.
Write the number in % without appending the unit.

Here is how some compounds turned out for %Inh.
COMPOUND	STUDY SYSTEM	UNIT ABBREV	MEASUREMENT
NCCC(NC(=O)c1cc(Br)c(-c2ccnc3[nH]ccc23)s1)c1ccccc1.O=C(O)C(F)(F)F.O=C(O)C(F)(F)F (stereo not shown)	CAMKK1	%	5
CCNc1nccc(-c2c(-c3ccc(F)cc3)ncn2C2CCN(C)CC2)n1	CAMKK1	%	12
CC(C)c1nc(-c2ccc(F)c(NS(=O)(=O)c3c(F)cccc3F)c2)c(-c2ccnc(Nc3ccc(N4CCOCC4)nc3)n2)s1	CAMKK1	%	17

Now let's try a different one.
stdin: Please look up its %Inh: CN(C)CCNS(=O)(=O)c1ccc(-c2ccnc3[nH]ccc23)cc1
stdout: 0

* * *

Tested on: TLK1
Details: concentration: 1 μM, replicates: in singlicate; n = 1
Lab note: compare %Inh against 20%. Equal or greater, write MET. Smaller, write NOT MET.

These recorded examples may help you get a feel for the data.
COMPOUND	STUDY SYSTEM	ASSIGNED LABEL
Cn1cc(-c2ccc3c(c2)CCN3C(=O)Cc2cc(F)cc(F)c2F)c2c(N)ncnc21 [GSK2634140]	TLK1	NOT MET
COc1cc(Nc2nccc(N3CCC(NC(=O)Nc4ccc5c(c4)OCO5)C3)n2)cc(OC)c1OC (centres unmarked) [GSK1379766]	TLK1	NOT MET
CCOc1nccc(-c2c(-c3ccc(F)cc3)ncn2C2CCNCC2)n1 [SB-249175]	TLK1	NOT MET
CN(C)CCNS(=O)(=O)c1ccc(-c2ccnc3[nH]ccc23)cc1 [GSK977620]	TLK1	NOT MET
Cn1cc(-c2cnc(N)c3c(-c4ccc5c(c4)CCN5C(=O)Cc4ccccc4)csc23)cn1 [GSK2593074]	TLK1	MET

stdin: Please check the record Cc1cccc(Nc2nc(N[C@H]3CCCC[C@H]3N)ncc2C(N)=O)c1.Cl [GSK986310] and state if its %Inh is at or above 20%.
stdout: NOT MET

stdin: Try this compound too: Cc1ccc(NC(=O)c2ccnc(N3CCCCC3)c2)cc1-c1ccc(C(=O)NCC2CC2)cc1 [GW775610]
stdout: MET

stdin: Try this compound too: O=C(Nc1n[nH]c2nc(-c3ccccc3O)ccc12)C1CC1 [SB-711880]
stdout: MET

* * *

Here, each record is paired with measured %Inh data.
Test system: MTOR
Conditions: concentration: 1 μM, replicates: in singlicate; n = 1
Number plus unit, in that order.

Here is how some compounds turned out for %Inh.
LINE NOTATION	%Inh
COc1cccc(CC(=O)N2CCc3cc(-c4cn(C)c5ncnc(N)c45)ccc32)c1	8%
COc1ccc(C2=C(Nc3cccc(O)c3)C(=O)NC2=O)cc1	31%
COc1ccc(NC(=O)c2ccoc2)cc1-c1ccc(C(=O)NCC2CC2)cc1	36%
CN(c1ccc2c(c1)nc(NCc1ccccc1)n2C)c1ccnc(Nc2ccc(CS(C)(=O)=O)cc2)n1.Cl	10%
CN(c1ccc(NC(=O)Nc2cccc(Cl)c2)cc1)c1ccnc(N)n1.Cl	13%
CN1CCN(Cc2ccc(NC(=O)Nc3ccc(N(C)c4ccnc(Nc5ccc(CS(C)(=O)=O)cc5)n4)cc3)cc2)CC1.Cl	0%
N#CC1(c2cccc(C(=O)Nc3cccc(Oc4ccc5nc(NC(=O)C6CC6)sc5n4)c3)c2)CC1	3%

Now let's try a different one.
stdin: Please look up its %Inh: Cn1cc(-c2cnc(N)c3c(-c4ccc5c(c4)CCN5C(=O)Cc4ccccc4)csc23)cn1
stdout: 0%

* * *

Test system: LOK
Construct: gene STK10
Settings: concentration: 1 μM, replicates: in singlicate; n = 1
Binning of %Inh into classes: bucket 1: < 5%; bucket 2: ≥ 5% and < 90%; bucket 3: ≥ 90%

COMPOUND	ASSIGNED LABEL
COc1ccc(C)c(Nc2ccnc(Nc3ccc(-c4cnc[nH]4)cc3)n2)c1.Cl	bucket 2
Cc1cccc(Nc2nc(NCCN)ncc2C(N)=O)c1	bucket 1
CNc1nccc(-c2ccc3c(N)n[nH]c3c2)n1	bucket 2
CN(c1ccc(F)c(NC(=O)c2cccc(OC(C)(C)C#N)c2Cl)c1)c1ccc2nc(NC(=O)C3CC3)sc2n1	bucket 3

stdin: Each compound maps to one class by %Inh. Which class for CCOc1nccc(-c2c(-c3ccc(F)cc3)ncn2C2CCNCC2)n1 ?
stdout: bucket 1

stdin: Try this compound too: CC(C)c1nc(-c2cccc(NS(=O)(=O)c3c(F)cccc3F)c2)c(-c2ccnc(Nc3ccc(N4CCOCC4)nc3)n2)s1.Cl
stdout: bucket 3

stdin: Try this compound too: CN(c1ccc(NC(=O)Nc2cccc(Cl)c2)cc1)c1ccnc(N)n1.Cl
stdout: bucket 3

stdin: Try this compound too: Cc1cc(-c2ccnc(Nc3cccc(C#N)c3)n2)cc(C)c1O
stdout: bucket 2

stdin: Try this compound too: Cl.Cl.NC(CNC(=O)c1cc(Br)c(-c2ccnc3[nH]ccc23)s1)c1ccccc1 (centres unmarked)
stdout: bucket 1

stdin: Try this compound too: CN(c1ccc(NC(=O)N2CCN(CCCN3CCOCC3)CC2)cc1)c1ccnc(Nc2ccc(CS(C)(=O)=O)cc2)n1.Cl
stdout: bucket 2

stdin: Try this compound too: N#CC1(c2cccc(C(=O)Nc3cccc(Oc4ccc5nc(NC(=O)C6CC6)sc5n4)c3)c2)CC1
stdout: bucket 3

stdin: Try this compound too: Nc1ncnc2scc(-c3ccc(NC(=O)Cc4cc(F)ccc4F)cc3)c12.O=C(O)C(F)(F)F
stdout: bucket 2

stdin: Try this compound too: Nc1cccc(-c2ccc3c(N)n[nH]c3c2)c1
stdout: bucket 1

stdin: Try this compound too: Cc1ccc(-c2ccc3occ(-c4ccc(S(C)=O)cc4)c3c2)nn1 (centres unmarked)
stdout: bucket 1

stdin: Try this compound too: O=C(O)C(F)(F)F.O=c1[nH]ccc2nc(N[C@@H]3CCNC3)nc(Nc3ccc4c(c3)S(=O)(=O)CC4)c12
stdout: bucket 3
